Study Target: Neuromedin-U receptor 1 (Homo sapiens)
Method: Agonist activity at recombinant human NMU1 expressed in HEK293 cells assessed as change in intracellular calcium flux at 10 uM by fluorescence assay relative to human NmU
Type: functional, cell-based
Numbered stars: 1 amine (or outer) side, 2 acyl side, 3 side chain; on linkers, the order of the positions; unused ones are H or OH. Bridge positions count the residues as written; N and C are the ends. Square brackets hold non-standard residues; d marks the D form. Peptide text beside a SMILES is read from it. * marks the point of attachment. X2 = CCCCCCCCCCCCCCCCNC(=O)CN(CCCCCCCCCCCCCCCC)CC(=O)*; Oic = O=C(O)[C@@H]1C[C@@H]2CCCC[C@@H]2N1; mXylylene = c1cc(C[*:1])cc(C[*:2])c1; Aib = CC(C)(N)C(=O)O; Ahx = NCCCCCC(=O)O
Entries and their Emax values follow.
Kindly answer with a numeric value in %, unit omitted.

In the examples that follow, each entry is paired with its recorded Emax.
**Q:** I'd like to know its Emax. The molecule in question is CC(C)C[C@@H]1NC(=O)[C@H](Cc2ccccc2)NC(=O)CCCCCNC(=O)[C@@H](N)CSCc2cccc(c2)CSC[C@@H](C(N)=O)NC(=O)CCCCCNC(=O)[C@H](CC(N)=O)NC(=O)[C@H](CCCNC(=N)N)NC(=O)[C@@H]2C[C@@H]3CCCC[C@@H]3N2C(=O)[C@H](CCCNC(=N)N)NC(=O)[C@H](Cc2ccccc2)NC1=O (H-C[Ahx]FLFR[Oic]RN[Ahx]C-NH2; linker 1-11 via mXylylene)
**A:** 30

**Q:** I'd like to know its Emax. The molecule in question is CCCCCCCCCCCCCCCCNC(=O)CN(CCCCCCCCCCCCCCCC)CC(=O)NC(C)(C)C(=O)N[C@@H](Cc1ccccc1)C(=O)N[C@@H](CC(C)C)C(=O)N[C@@H](Cc1ccccc1)C(=O)N[C@@H](CCCNC(=N)N)C(=O)N1CCC[C@H]1C(=O)N[C@@H](CCCNC(=N)N)C(=O)N[C@@H](CC(N)=O)C(N)=O (X2-[Aib]FLFRPRN-NH2)
**A:** 118

Okay, now this molecule:
**Q:** I'd like to know its Emax. The molecule in question is `CCCCCCCCCCCCCCCC(=O)NC(C)(C)C(=O)N[C@H](Cc1ccccc1)C(=O)N[C@H](CC(C)C)C(=O)N[C@@H](Cc1ccccc1)C(=O)N(C)[C@@H](CCCNC(=N)N)C(=O)N1CCC[C@H]1C(=O)N[C@H](CCCNC(=N)N)C(=O)N(C)[C@H](CC(N)=O)C(N)=O`
**A:** 13.8
